Hey, just so you know, these numbers are from ChEMBL document CHEMBL5058577.

Reported Population Normal (%) values for the following compounds.
test system: U2OS; test: Multiplex assay against U2OS; assay type: toxicity, cell-based; settings: human, 24 h, 1 µM, compound concentration 1 uM, replicate 2
Readout type: Population Normal (%)

Cl.NCCc1ccc(O)c(O)c1 [DOPAMINE HYDROCHLORIDE] : 98
Cl.N=C(N)NC(=O)Cc1c(Cl)cccc1Cl [GUANFACINE HYDROCHLORIDE] : 99
Cc1noc(-c2ccc(-c3ccc(CC(=O)O)cc3)cc2)c1NC(=O)O[C@H](C)c1ccccc1Cl : 99
C[C@H](N)COC(=O)[C@@H](CCCCN)NC(=O)Cc1c(-c2ccc3ccccc3c2)[nH]c2c1ccc1ccccc12 : 98
CC(C)c1noc(N2CCC(COc3ccc(-c4ccc(S(C)(=O)=O)cc4)nc3)CC2)n1 : 99
COC[C@@H](c1ccc(C(F)(F)F)cc1)N1CCN(C2(C)CCN(C(=O)c3c(C)ncnc3C)CC2)C[C@@H]1C.O=C(O)/C=C\C(=O)O [VICRIVIROC MALEATE] : 95
Cc1c(CC(=O)O)c2cccnc2n1Cc1ccc(S(C)(=O)=O)cc1C(F)(F)F : 100
O=C1[C@H](Cc2ccc(O)cc2)N2C(=O)CCN(C(=O)NCc3ccccc3)[C@H]2CN1Cc1cccc2ccccc12 : 98
CN[C@@H](C)C(=O)N[C@H](C(=O)N1CCC[C@H]1C(=O)Nc1snnc1-c1ccccc1)C1CCCCC1 : 91
